Would you mind telling me the reported normalized growth of each entry?
test: chemical genetic growth profiling, strain panel (AID 1159580);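 further: tested at 20 µM; growth read once vehicle control cultures reached saturation at 30 °C; 1 = growth at the plate median or of vehicle wells; lower values mean less growth of the strain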; settings: S. cerevisiae deletion strains, growth OD, locus YJR043C, strain POL32, hits give low values
The whole screen tested about 5,500 compounds, of which about 2,000 (36%) were called active. Another 18% or so got no clear call; they are omitted. This is one part of the list.
Numbers only.

Use these answered entries as a reference point.
COC(=O)c1c(OC)cc2c(c1C)Oc1c(Cl)c(OC(C)=O)c(Cl)c(C)c1C(=O)O2 = 1.04
Nc1ccc(C(=O)O)cc1 = 0.996
CC(=O)Oc1c(Cl)c(C)c2c(c1Cl)OC(=O)c1c(C)c(Cl)c(OC(C)=O)c(Cl)c1O2 = 0.921
O=C(O)C1=CCCNC1 = 1.01

Go through the list and state normalized growth for each entry.
1. Cc1c(C)c2c(c(C)c1O)CCC(C)(CCCC(C)CCCC(C)CCCC(C)C)O2 (stereo not given)
2. Cc1ccc2c(c1)C1(C)CCCC(C)(C(=O)O)C1CC2 (stereo not given)

Response:
1
1.05
